molecular target: A*3002 (Homo sapiens, UniProt P04439, D101N/D140H/D185E/E176R/F33S/G80R/H175R/K168Q/Q94H/R138E/R41S/V100E); test: biochemical; type: binding
No end group written: not given here.
measure: IC50 (nM)
Entry rule: numbers only, all in nM.

sequence_entry: RQEILDLWVY [Peptide 9015.0174]
IC50 [nM]: 76
--
sequence_entry: KLNWASQIY [Peptide 1595.09]
IC50 [nM]: 2.9

Which IC50 value is on record for TWETWWTDY [Peptide 9015.0019] ?
6310

Please answer likewise for EISNYTDTIY [Peptide 9015.0157]
7050

One more sequence: HYARELHPEY [Peptide 9018.0035]
104

Repeat with STEWRQRRY [Peptide 9018.0017]
19

// repeat for VSRRAKGWFY [Peptide 9015.0178] and report
40

# iterate: VSDEWRLRRY [Peptide 9018.0016]
47

Would you mind doing SYEWRLRRY [Peptide 9018.0036] as well?
58

Follow-up entry: YTPGPGVRY [Peptide 9015.0026]
7640

---

biological target: B*3503 (Homo sapiens, UniProt P01889, A329T/A93T/A95T/C349S/D201E/D98Y/E176V/E187L/E204Q/E69T/I218V/K202T/L119I/Q94N/R155S/R180L/S121R/S35A/S48A/T118I/V127L/V306I/V36M/Y140F/Y91F); assay: biochemical; format: binding
No end group written: not given here.
measure: IC50

sequence_entry: DPYEVSYRI
IC50: > 30 µM

# evaluate next
Look up IC50 for this sequence: APRASRPSL
> 30 µM

---

Each item that follows carries a reported pIC50.
molecular target: HLA-A*0201 (HLA-A2.1) (Homo sapiens, UniProt P04439, D140Y/D185E/D98H/E176V/E277Q/G131W/G231S/I119V/I121R/I166T/I218V/L300P/L318F/N151K/N90K/P208A/P217A/Q86G/Q94H/R138H/R169H/T345S); assay: biochemical; type: binding
No end group written: not given here.
Worth noting: pIC50 values are minus log10 of concentrations stated in mol/L.

sequence_entry: YVVWDSIYYI [Peptide 1578.52]
pIC50: 7.11

Which pIC50 is listed for VLAEAMSHT [Peptide 1539.06] ?
6.61

Try LLIESTPFNV [Peptide 9013.0128] next.
7.80

Next up: QQHTQVLFV [Peptide 9013.0102]
5.68

Please do the same for FLQGAIISFV [Peptide 1578.27] as well.
7.35

// repeat for IIQNDTGFYV [Peptide 9013.0146] and report
6.81

Entry to check: ALNTTYLWWV [Peptide 9013.0217]
6.65

Next sequence up: GLYDGREHTV [Peptide 1586.06]
6.84

---

Readings of pIC50 for the listed compounds
target: DR1 (DRB1*0101) (Homo sapiens, UniProt P01903+P01911, A100R/D57E/F55L/F60I/F76Y/I96L/L162R/M171V/P40L/Q125E/R42F/V115G/Y59C); assay: biochemical; assay type: binding
# pIC50: negative log10 of molar concentration; output just the value

Worked examples follow.
compound: CC[C@H](C)[C@H](NC(=O)[C@@H](NC(=O)[C@H](CCCCN)NC(=O)[C@H](CC(C)C)NC(=O)[C@@H](NC(=O)[C@@H](NC(=O)[C@@H](N)CCCNC(=N)N)[C@@H](C)O)[C@@H](C)O)[C@@H](C)O)C(=O)N[C@H](C(=O)N[C@H](C(=O)N[C@@H](CO)C(=O)N[C@@H](C)C(=O)N[C@@H](CCC(=O)O)C(=O)N[C@@H](CC(C)C)C(=O)N1CCC[C@H]1C(=O)N[C@@H](CCCCN)C(=O)O)C(C)C)[C@@H](C)O [Peptide 9014.0058]
pIC50: 6.51
--
compound: CC[C@H](C)[C@H](NC(=O)[C@H](Cc1c[nH]c2ccccc12)NC(=O)[C@H](CCC(=O)O)NC(=O)[C@@H]1CCCN1)C(=O)N[C@@H](CCC(=O)O)C(=O)N[C@@H](CCCNC(=N)N)C(=O)N[C@@H](CCC(N)=O)C(=O)N[C@H](C(=O)N[C@H](C(=O)N[C@@H](CC(C)C)C(=O)N[C@@H](CCC(N)=O)C(=O)N[C@@H](Cc1c[nH]cn1)C(=O)N[C@@H](CO)C(=O)N[C@@H](Cc1ccccc1)C(=O)N[C@@H](CC(N)=O)C(=O)O)C(C)C)[C@@H](C)O [Peptide 89.0049]
pIC50: 5.28
--
compound: CC[C@H](C)[C@H](NC(=O)[C@H](C)NC(=O)[C@H](CCCCN)NC(=O)[C@H](Cc1c[nH]cn1)NC(=O)[C@H](C)NC(=O)[C@H](CCCCN)NC(=O)[C@H](CO)NC(=O)[C@H](CCCCN)NC(=O)[C@H](CO)NC(=O)[C@@H](NC(=O)[C@H](CC(N)=O)NC(=O)[C@H](Cc1ccc(O)cc1)NC(=O)[C@H](C)N)[C@@H](C)CC)C(=O)N[C@@H](CCC(=O)O)C(=O)N[C@@H](CC(C)C)C(=O)O [Peptide 89.0159]
pIC50: 6.19

What does the record list as pIC50 for CSCC[C@H](NC(=O)[C@H](CS)NC(=O)[C@H](CC(N)=O)NC(=O)[C@H](CC(=O)O)NC(=O)[C@H](CCCCN)NC(=O)[C@H](CC(N)=O)NC(=O)CN)C(=O)N[C@H](C(=O)N[C@@H](Cc1ccc(O)cc1)C(=O)N[C@H](C(=O)N[C@@H](C)C(=O)N[C@@H](Cc1c[nH]c2ccccc12)C(=O)N[C@@H](CC(=O)O)C(=O)N[C@@H](CO)C(=O)N[C@H](C(=O)O)C(C)C)C(C)C)[C@@H](C)O [Peptide 1601.09] ?
5.65

Quick one: CSCC[C@H](NC(=O)[C@H](Cc1ccc(O)cc1)NC(=O)[C@H](Cc1ccc(O)cc1)NC(=O)[C@@H](NC(=O)[C@@H](N)CO)C(C)C)C(=O)N[C@H](C(=O)N[C@@H](CC(=O)O)C(=O)N[C@@H](C)C(=O)NCC(=O)N[C@H](C(=O)N[C@@H](Cc1c[nH]c2ccccc12)C(=O)N[C@@H](CC(=O)O)C(=O)N[C@@H](CCCCN)C(=O)N[C@H](C(=O)N[C@@H](C)C(=O)O)[C@@H](C)O)[C@@H](C)O)[C@@H](C)O [Peptide 90.0182]
8.03

Try this compound next: CSCC[C@H](NC(=O)[C@H](Cc1ccc(O)cc1)NC(=O)[C@H](Cc1ccc(O)cc1)NC(=O)[C@@H](NC(=O)[C@H](CO)NC(=O)[C@H](CC(=O)O)NC(=O)[C@H](Cc1c[nH]c2ccccc12)NC(=O)[C@H](C)NC(=O)[C@@H](N)C(C)C)C(C)C)C(=O)N[C@H](C(=O)N[C@@H](CC(=O)O)C(=O)N[C@@H](C)C(=O)NCC(=O)N[C@H](C(=O)N[C@@H](Cc1c[nH]c2ccccc12)C(=O)O)[C@@H](C)O)[C@@H](C)O [Peptide 1601.10]
5.10
